Consider the following binders and their measured Kd readings.
experimental system: T1, human 5T4 antigen (human, UniProt Q13641 32-355, limits assumed)
T1 sequence: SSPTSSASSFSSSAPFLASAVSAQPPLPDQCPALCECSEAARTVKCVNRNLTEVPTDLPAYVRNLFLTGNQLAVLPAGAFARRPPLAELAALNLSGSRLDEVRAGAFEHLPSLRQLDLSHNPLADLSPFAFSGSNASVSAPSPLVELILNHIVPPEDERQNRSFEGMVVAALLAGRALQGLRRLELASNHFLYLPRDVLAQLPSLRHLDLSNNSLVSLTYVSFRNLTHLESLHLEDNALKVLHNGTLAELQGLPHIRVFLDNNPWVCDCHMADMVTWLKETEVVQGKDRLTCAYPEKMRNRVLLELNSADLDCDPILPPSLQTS
procedure text: BIACORE (SPR); human 5T4 antigen immobilized on CM5 chip
Method: To assess the binding specificity and affinity of the A1, A2, and A3 antibodies, BIACORE® analysis was performed using human 5T4 antigen immobilized on a CM5 chip. BIACORE® technology utilizes changes in the refractive index at the surface layer upon binding of the antibody to the 5T4 antigen immobilized on the layer. Binding is detected by surface plasmon resonance (SPR) of laser light refracting from the surface. […]
State just the number; it will be interpreted in nM.

These solved cases illustrate the format of a correct answer.
# binder, reading unit, Kd
records = [
    ("chimeric A2 antibody (antibody, human IgG4, V domains shown, also called ChiA2; ChiA2 γ4) VH: QVQLQQSRPELVKPGASVKMSCKASGYTFTDYVISWVKQRTGQGLEWIGEIYPGSNSIYYNEKFKGRATLTADKSSSTAYMQLSSLTSEDSAVYFCAMGGNYGFDYWGQGTTLTVSS VL: QIVLTQSPAIMSASLGERVTLTCTASSSVNSNYLHWYQQKPGSSPKLWIYSTSNLASGVPARFSGSGSGTSYSLTISSMEAEDAATYYCHQYHRSPLTFGAGTKLELK", "nM", 1.8),
    ("chimeric A1 antibody (antibody, V domains shown, Biotinylated when used as the labelled competitor in Table 13; the site is not stated., also called ChiA1; ChiA1 γ4) VH: QIQLVQSGPELKKPGETVKISCKASGYTFTNFGMNWVKQGPGEGLKWMGWINTNTGEPRYAEEFKGRCAFSLETTASTAYLQINNLKNEDTATYFCARDWDGAYFFDYWGQGTTLTVSS VL: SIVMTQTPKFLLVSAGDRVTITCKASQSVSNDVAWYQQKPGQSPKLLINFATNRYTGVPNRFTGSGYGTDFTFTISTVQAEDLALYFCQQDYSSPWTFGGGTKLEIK", "nM", 0.44),
    ("chimeric A3 antibody bearing C91Y mutation (antibody, V domains shown, also called Chimeric A3 + C91Y; ChiA3+C91Y) VH: EVQLVESGGGLVQPKGSLKLSCAASGFTFNTYAMNWVRQAPGKGLEWVARIRSKSNNYATYYADSVKDRFTISRDDSQSMLYLQMNNLKTEDTAMYYCVRQWDYDVRAMNYWGQGTSVTVSS VL: DIVMTQSHIFMSTSVGDRVSITCKASQDVDTAVAWYQQKPGQSPKLLIYWASTRLTGVPDRFTGSGSGTDFTLTISNVQSEDLADYFCQQYSSYPYTFGGGTKLEIK", "nM", 0.59),
]

**Query** Look up Kd: chimeric A1 antibody bearing C67F mutation (antibody, V domains shown, also called Chimeric A1 + C67F; ChiA1+C67F) VH: QIQLVQSGPELKKPGETVKISCKASGYTFTNFGMNWVKQGPGEGLKWMGWINTNTGEPRYAEEFKGRFAFSLETTASTAYLQINNLKNEDTATYFCARDWDGAYFFDYWGQGTTLTVSS VL: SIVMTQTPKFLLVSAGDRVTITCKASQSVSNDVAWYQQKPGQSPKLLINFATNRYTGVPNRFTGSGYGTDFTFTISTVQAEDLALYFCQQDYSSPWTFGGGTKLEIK
**Result** 0.38
